tgt: UniProtKB Q00613
protocolNotes: Transcriptional activation of HSF1 in heat shock stress-induced human HeLa cells assessed as granule formation treated 1 hr before heat shock challenge measured after 2 hrs by immunocytochemical staining
Labelling field: enter 1 if recorded EC50 is less than 20 µM. Enter 0 if it equals or exceeds that cut-off.

compound: CC(C)N(CC(O)CO/N=C(\Cl)c1nc2ccccc2o1)C(C)C (stereo unspecified)
labelValue: 0
//
compound: OC(CO/N=C(\Cl)c1nc2cc(Cl)ccc2o1)CN1CCCCC1 (stereo unspecified)
labelValue: 0
//
compound: OC(CO/N=C(\Cl)c1nc2cccc(F)c2o1)CN1CCCCC1 (stereo unspecified)
labelValue: 1
//
compound: CC1CC(C)CN(CC(O)CO/N=C(\Cl)c2nc3ccccc3o2)C1 (stereo unspecified)
labelValue: 1
//
compound: CC(C)N(CCCF)CC(O)CO/N=C(\Cl)c1nc2ccccc2o1 (stereo unspecified)
labelValue: 0

Alright, here's another compound for you.
Find out if reported EC50 for CCCN(CCC)CC(O)CO/N=C(\Cl)c1nc2ccccc2o1 (stereo unspecified) is less than 20 µM 0

---

tgt: Heat shock factor protein 1 (Homo sapiens, UniProt Q00613)
Sequence (Q00613 whole entry): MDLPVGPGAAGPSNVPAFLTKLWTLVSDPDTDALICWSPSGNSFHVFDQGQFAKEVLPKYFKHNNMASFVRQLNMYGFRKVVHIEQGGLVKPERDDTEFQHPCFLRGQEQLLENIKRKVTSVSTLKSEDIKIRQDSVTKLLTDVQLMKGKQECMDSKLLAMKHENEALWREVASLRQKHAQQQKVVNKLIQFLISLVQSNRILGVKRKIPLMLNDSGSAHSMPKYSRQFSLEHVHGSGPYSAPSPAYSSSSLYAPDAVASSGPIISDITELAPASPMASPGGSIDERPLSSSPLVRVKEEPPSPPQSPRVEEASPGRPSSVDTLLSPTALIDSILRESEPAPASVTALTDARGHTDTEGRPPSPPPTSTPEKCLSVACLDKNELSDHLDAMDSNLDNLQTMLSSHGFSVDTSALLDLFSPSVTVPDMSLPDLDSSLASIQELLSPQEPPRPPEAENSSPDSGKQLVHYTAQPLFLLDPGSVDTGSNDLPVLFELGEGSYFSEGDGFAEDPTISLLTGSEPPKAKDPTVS
protocolNotes: Transcriptional activation of HSF1 in heat shock stress-induced human HeLa cells assessed as granule formation treated 1 hr before heat shock challenge measured after 2 hrs by immunocytochemical staining
quantityMeasured: pEC50
Hey, just a heads up that pEC50 is the negative log base 10 of the concentration in molar.

compound: Cc1ccc2nc(/C(Cl)=N/OCC(O)CN3CCCCC3)oc2c1 (stereo unspecified)
tgt: Heat shock factor protein 1 (Homo sapiens, UniProt Q00613)
pEC50: 4.51
--
compound: CCCCN(CCCC)CC(O)CO/N=C(\Cl)c1nc2ccccc2o1 (stereo unspecified)
tgt: Heat shock factor protein 1 (Homo sapiens, UniProt Q00613)
pEC50: 4.68
--
compound: CCCN(CC)CC(O)CO/N=C(\Cl)c1nc2ccccc2o1 (stereo unspecified)
tgt: Heat shock factor protein 1 (Homo sapiens, UniProt Q00613)
pEC50: 4.64
--
compound: CC(C)N(CCO)CC(O)CO/N=C(\Cl)c1nc2ccccc2o1 (stereo unspecified)
tgt: Heat shock factor protein 1 (Homo sapiens, UniProt Q00613)
pEC50: 4.54
--
compound: OC(CO/N=C(\Cl)c1nc2cc(F)ccc2o1)CN1CCCCC1 (stereo unspecified)
tgt: Heat shock factor protein 1 (Homo sapiens, UniProt Q00613)
pEC50: 4.29
--
compound: OC(CO/N=C(\Cl)c1nc2ccccc2s1)CN1CCCCC1 (stereo unspecified)
tgt: Heat shock factor protein 1 (Homo sapiens, UniProt Q00613)
pEC50: 4.28
--
compound: OC(CO/N=C(\Cl)c1nc2ccc(Cl)cc2o1)CN1CCCCC1 (stereo unspecified)
tgt: Heat shock factor protein 1 (Homo sapiens, UniProt Q00613)
pEC50: 4.64
--
compound: OC(CO/N=C(\Cl)c1nc2ccccc2s1)CN1CCCC1 (stereo unspecified)
tgt: Heat shock factor protein 1 (Homo sapiens, UniProt Q00613)
pEC50: 4.20

Sample CCS(=O)(=O)c1ccc2oc(/C(Cl)=N/OCC(O)CN3CCCCC3)nc2c1 (stereo unspecified) ; pEC50 observed: 4.37

Sample OC(CO/N=C(\Cl)c1nc2ccccc2o1)CN1CCCC(F)C1 (stereo unspecified) ; pEC50 observed: 4.28

Sample Cc1ccc2oc(/C(Cl)=N/OCC(O)CN3CCCCC3)nc2c1 (stereo unspecified) ; pEC50 observed: 4.38

Sample CC(C)N(CC(O)CO/N=C(\Cl)c1nc2ccccc2o1)C(C)(C)C (stereo unspecified) ; pEC50 observed: 4.78

Sample OC(CO/N=C(\Cl)c1nc2c(ccc3ccccc32)o1)CN1CCCCC1 (stereo unspecified) ; pEC50 observed: 4.92

Sample CN(C)S(=O)(=O)c1ccc2nc(/C(Cl)=N/OCC(O)CN3CCCCC3)oc2c1 (stereo unspecified) ; pEC50 observed: 4.38

---

Each entry below carries its reported pEC50.
tgt: Heat shock factor protein 1 (Homo sapiens)
protocolNotes: Transcriptional activation of HSF1 in heat shock stress-induced human HeLa cells assessed as granule formation treated 1 hr before heat shock challenge measured after 2 hrs by immunocytochemical staining
Hey, just a heads up that pEC50 is the negative log base 10 of the concentration in molar.

compound: OC(CO/N=C(\Cl)c1nc2ccccc2o1)CN1CCCCC1 (configuration not stated)
quantityMeasured: pEC50
measurement: 4.38

compound: OC(CO/N=C(\Cl)c1nc2ccc(F)cc2o1)CN1CCCCC1 (configuration not stated)
quantityMeasured: pEC50
measurement: 4.53

From here, focus on the item given below.
Sample CCN(CC)CC(O)CO/N=C(\Cl)c1nc2ccccc2o1 (configuration not stated) ; pEC50 observed: 4.57

---

tgt: Heat shock factor protein 1 (Homo sapiens)
protocolNotes: Transcriptional activation of HSF1 in heat shock stress-induced human HeLa cells assessed as granule formation treated 1 hr before heat shock challenge measured after 2 hrs by immunocytochemical staining
quantityMeasured: EC50 (µM)
Report only the number, with the unit µM understood.

molecule: OC(CO/N=C(\Cl)c1nc2c(F)cccc2o1)CN1CCCCC1 (centres undefined)
EC50 / µM: 20.2

molecule: CC(C)N(CC(O)CO/N=C(\Cl)c1nc2ccccc2o1)CC1CC1 (centres undefined)
EC50 / µM: 12.4

molecule: CCCN(C[C@H](O)CO/N=C(\Cl)c1nc2ccccc2o1)C(C)C
EC50 / µM: 24.1

Sample CC1CCCC(C)N1CC(O)CO/N=C(\Cl)c1nc2ccccc2o1 (centres undefined) ; EC50 observed: 32.4

Data origin: BindingDB's records for doi:10.1016/j.bmcl.2009.03.011
